// values below are Ki; system is Serotonin-5-HT7 (Homo sapiens, UniProt P34969)
Sequence (P34969 whole entry): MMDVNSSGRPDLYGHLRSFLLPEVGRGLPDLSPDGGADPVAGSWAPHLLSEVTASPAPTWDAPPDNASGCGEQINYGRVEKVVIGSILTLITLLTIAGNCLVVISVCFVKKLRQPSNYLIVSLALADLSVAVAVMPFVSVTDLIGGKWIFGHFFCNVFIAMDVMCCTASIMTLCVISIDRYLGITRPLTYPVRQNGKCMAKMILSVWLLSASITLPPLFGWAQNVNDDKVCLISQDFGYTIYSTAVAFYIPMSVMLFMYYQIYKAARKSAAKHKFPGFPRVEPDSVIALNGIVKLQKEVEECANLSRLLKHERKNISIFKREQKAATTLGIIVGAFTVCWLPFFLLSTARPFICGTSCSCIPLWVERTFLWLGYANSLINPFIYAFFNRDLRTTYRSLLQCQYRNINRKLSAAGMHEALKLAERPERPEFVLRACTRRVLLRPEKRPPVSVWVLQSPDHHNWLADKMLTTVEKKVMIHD
measured-endpoint: Ki (nM)

compound="Fc1ccc(-c2cncc(CN3CCN(c4cccc5c4OCCO5)CC3)c2)cc1 [SLV313, reference compound]" quantitative_readout=63
compound="[O-][n+]1cc(CN2CCN(c3cccc4c3OCCO4)CC2)cc(-c2ccc(F)cc2)c1 [pyridine N-oxide]" quantitative_readout=100

###

# assay-overview: Brain concentrations in mice after i.v. or p.o. administration, LC-MS
# Assay type: in vivo
# condition-summary: mouse, brain, po, 5 mg/kg p.o. of administered compound, 1 h, read-out: piperazine-N-ox analyzed in brain
measured-endpoint: concentration at 1 h (ng/g)

compound="[O-][N+]1(Cc2cncc(-c3ccc(F)cc3)c2)CCN(c2cccc3c2OCCO3)CC1 [piperazine N-oxide]" measured_endpoint="concentration at 1 h" uom=ng/g quantitative_readout=0
